System: WPMY1-TUBA1B-RELA
Test: phenotypically active (imaging signature differs from DMSO and reproducible) at any of 0.3-9 uM (binary (1 = active, 0 = inactive)); higher = active
Conditions: treatment time: 24 h
Measurement Label: phenotypically active
Reply with the value as a number alone.

{"columns": ["Molecule", "phenotypically active"],
 "data": [
  ["CCOC(=O)[C@H](CCc1ccccc1)N[C@@H](C)C(=O)N1Cc2ccccc2C[C@H]1C(=O)O", 0],
  ["COc1cc2c(NC3CCN(C)CC3)nc(N3CCCN(C)CC3)nc2cc1OCCCN(C)C", 0],
  ["Cc1ncc([N+](=O)[O-])n1CCOC(=O)NC(Nc1ncccn1)C(Cl)(Cl)Cl (centres undefined)", 0],
  ["CCCCNNC(=O)c1ccc(Br)cc1", 1],
  ["CN1CCN([C@H]2CC[C@H](n3cc(-c4ccc(Oc5ccccc5)cc4)c4c(N)ncnc43)CC2)CC1", 1]
]}

Input: Any idea what phenotypically active came out for "N#Cc1ccc(C(c2ccc(C#N)cc2)n2cncn2)cc1" on WPMY1-TUBA1B-RELA?
Output: 0

Input: Kindly state the measured phenotypically active obtained for "Cc1nc(NC(=O)N2CCC[C@H]2C(N)=O)sc1-c1ccnc(C(C)(C)C(F)(F)F)c1" with WPMY1-TUBA1B-RELA.
Output: 1

Input: // fetch WPMY1-TUBA1B-RELA phenotypically active for "NC(=O)Nc1sc(-c2ccc(F)cc2)cc1C(N)=O"
Output: 1

Input: Under WPMY1-TUBA1B-RELA: phenotypically active value of "Cc1cc(-c2ccc(/C=C3\S/C(=N\c4ccc(Cl)c(C(=O)O)c4)NC3=O)o2)c([N+](=O)[O-])cc1C" ?
Output: 0
